- measurement.target: GHSR1a (Homo sapiens)
- Sequence (Q92847 whole entry): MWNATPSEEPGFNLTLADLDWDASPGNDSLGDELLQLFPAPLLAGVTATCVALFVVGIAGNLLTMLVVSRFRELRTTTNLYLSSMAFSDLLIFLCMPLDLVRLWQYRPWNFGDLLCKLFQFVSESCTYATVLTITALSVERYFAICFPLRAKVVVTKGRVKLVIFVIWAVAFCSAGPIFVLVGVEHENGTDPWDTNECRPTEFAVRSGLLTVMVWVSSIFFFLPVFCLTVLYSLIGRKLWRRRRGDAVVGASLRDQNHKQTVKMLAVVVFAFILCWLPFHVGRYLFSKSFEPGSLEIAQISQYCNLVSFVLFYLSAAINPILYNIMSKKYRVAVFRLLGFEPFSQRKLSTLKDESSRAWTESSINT
- assay.comment: Calcium FLIPR assay, GHSR-1a antagonism (reduction of ghrelin response)
- measurement.context: HEK293/GHSR1a cells, ghrelin 10 nM
- Method: The intracellular calcium assay was carried out in a 384-well format FLIPR™ (Molecular Device) HEK293/GHSR1a cell line. Cells were seeded 24 hr prior to the experiments at an optimal density per well. […] Relative fluorescence was monitored by the FLIPR™ Molecular Device. […] To check for GHSR-1a antagonism the compound and Ghrelin (10 nM) were added to the cells at t=20 sec. and the calcium response was measured for 2 minutes. […]
The following compounds are shown together with reported IC50 values.
# unit: nM | format: bare number

For orientation, consider the following solved cases.
compound | measurement.target | unit.symbol | test.result
CN1CCC(N(C)C(=O)N[C@H](c2ccc(-c3cnccn3)c(Cl)c2Cl)C(F)(F)F)CC1 | GHSR1a (Homo sapiens) | nM | 3
CC(NC(=O)N(C)C1CCN(C)CC1)c1ccc(-c2cncc(Br)c2)c(Cl)c1Cl (stereo not drawn) | GHSR1a (Homo sapiens) | nM | 78
CC(NC(=O)N(C)C1CCN(C)CC1)c1ccc(-c2cnn(C3CC3)c2)c(Cl)c1Cl (stereo not drawn) | GHSR1a (Homo sapiens) | nM | 64
CN1CCC(N(C)C(=O)NC(CO)c2ccc(-c3cncnc3)c(Cl)c2Cl)CC1 (stereo not drawn) | GHSR1a (Homo sapiens) | nM | 523000
CC(NC(=O)N(Cc1ccc(CO)cc1)C1CCN(C)CC1)c1ccc(-c2cccnc2)c(Cl)c1Cl (stereo not drawn) | GHSR1a (Homo sapiens) | nM | 8

With those in mind, consider the next compound.
Specify reported IC50 for the compound shown: CC(NC(=O)N(C)C1CCN(C)CC1)c1ccc(-c2cccc(N)c2)c(Cl)c1Cl (stereo not drawn) 14
